Test system: OVCAR-3 ovarian
Test method notes: NCI tumour cell line growth inhibition, 48 h
Where a SMILES comes first, the peptide text is derived from it. [ ]: non-standard residue; d: D form. The star is where a group is joined. AllylGly = C=CC[CH](N)C(=O)O; Boc = CC(C)(C)OC(=O)*; OtBu = CC(C)(C)O*
Measurement type: TGI

# input Reported TGI, compound O=C1NC(Cc2c[nH]c3ccccc23)C(=O)N2C(C3CCCCC3)c3[nH]c4ccccc4c3C[C@@H]12 (stereo partly specified) : ____
# output 6.58 µM

# input Reported TGI, compound CN(NC(=O)CCCl)C1=NCCN1 : ____
# output > 100 µM

# input Reported TGI, compound C=CCC(NC(=O)C(CC(=O)OC(C)(C)C)NC(=O)OC(C)(C)C)C(=O)OC (stereo unspecified) (Boc-Asp(OtBu)-[AllylGly]-OMe; configuration not given here) : ____
# output 61.4 µM

# input Reported TGI, compound CN(C)CCNc1ccc2c(=O)n(CCN(C)C)c(=O)n3c4ccc([N+](=O)[O-])cc4c(=O)c1c23 : ____
# output 2.27 µM

# input Reported TGI, compound CC(N)C(C)Cc1ccccc1 (stereo unspecified) : ____
# output > 100 µM

# input Reported TGI, compound C=C1C[C@](OC)([C@H](O)C(=O)N[C@@H](OC)[C@@H]2C[C@@H](O)C(C)(C)[C@@H](C[C@@H](COC)OC)O2)O[C@H](C)[C@@H]1C : ____
# output 0.00368 µM

# input Reported TGI, compound Cc1cc2cc3cc(C)c(N(C)C)cc3nc2cc1N(C)C : ____
# output 11.1 µM

# input Reported TGI, compound O=C(CO)CC(=O)C(=O)Nc1nc([N+](=O)[O-])cs1 : ____
# output > 100 µM

# input Reported TGI, compound COc1cc(C2C(Cl)C(=O)N2NC(=O)c2ccccc2O)ccc1O (stereo unspecified) : ____
# output > 100 µM

# input Reported TGI, compound COc1ccc(-c2csc(=Nc3ccccc3)n2CC(O)c2ccc([N+](=O)[O-])cc2)cc1 (stereo unspecified) : ____
# output > 100 µM

# input Reported TGI, compound CC(=O)N1CC(Nc2ccc(OC(F)(F)F)cc2)=CC1=O : ____
# output 4.03 µM

# input Reported TGI, compound CCOC(=O)c1c(C)c2c(n1C)CCc1cn[nH]c1-2 : ____
# output > 100 µM

# input Reported TGI, compound Cc1ccc(NC(=O)c2cccc([N+](=O)[O-])c2O)c([N+](=O)[O-])c1 : ____
# output 44.1 µM

# input Reported TGI, compound Clc1ccc(SCCSCCCCCCCCCCSCCSc2ccc(Cl)cc2)cc1 : ____
# output > 100 µM

# input Reported TGI, compound CCCCCNc1nonc1N : ____
# output > 100 µM

# input Reported TGI, compound CC1C[C@H](OC(N)=O)C(C)CC1=O (stereo partly specified) : ____
# output > 100 µM

# input Reported TGI, compound COc1ccc2nc3ccc(OC)cc3c(S(=O)(=O)Cc3ccc([N+](=O)[O-])cc3)c2c1 : ____
# output > 100 µM

# input Reported TGI, compound CCCCn1c(C)c(C(=O)OCC)s/c1=N/Nc1nc2ccccc2nc1-c1ccccc1 : ____
# output > 100 µM

# input Reported TGI, compound O=C1OCC(c2cccs2)=C1Cl : ____
# output > 100 µM

# input Reported TGI, compound CC1(C2(C)OC(=O)c3ccccc32)OC(=O)c2ccccc21 (stereo unspecified) : ____
# output > 100 µM

# input Reported TGI, compound COc1cc(C(=O)/C=C/c2cc(C(=O)c3cc(OC)c(OC)c(OC)c3)ccc2OC)ccc1N : ____
# output 4.17 µM

====

Test system: HCT-116 colon
Test method notes: NCI tumour cell line growth inhibition, 48 h
Measurement type: TGI (µM)
Write the answer as a number in µM, unit excluded.

# input Identify the measured TGI of COc1cc(CCCOC(=O)/C=C/c2ccc(O)c(O)c2)cc(O)c1O for HCT-116 colon.
# output 34.9

# input Identify the measured TGI of CN(C)c1ccc(N=Cc2c([O-])ccc3ccccc23)cc1.[C-]#[O+].[C-]#[O+].[Ir] for HCT-116 colon.
# output 32.1

# input Identify the measured TGI of COC1(OC)CC2C=C(S(=O)(=O)c3ccccc3)C1N(Cc1ccccc1)C2=O (stereo not drawn) for HCT-116 colon.
# output 30

# input Identify the measured TGI of CCOc1ccc([C@@H]2[C@@H](Oc3ccccc3)C(=O)N2c2cc(OC)c(OC)c(OC)c2)cc1 for HCT-116 colon.
# output 3.88

# input Identify the measured TGI of CC(C)C1(C)N=C(C(F)(F)F)c2cc(C(=O)C(F)(F)F)c3ccccc3c2N1 (stereo not drawn) for HCT-116 colon.
# output 11.8

# input Identify the measured TGI of O=C(O)C1C(C(=O)Nc2ccc3c(c2)Cc2ccccc2-3)C2(Cl)C(Cl)=C(Cl)C1(Cl)C2(Cl)Cl (stereo not drawn) for HCT-116 colon.
# output 38.1

# input Identify the measured TGI of CC(=O)c1ccc(NC(=O)CSc2nnc(-c3cc(-c4ccc(C)cc4)nc4ccccc34)o2)cc1 for HCT-116 colon.
# output 6.1

# input Identify the measured TGI of CC(C)(C)[Si](C)(C)OCC1OC(n2cnc3c(NC(=O)c4ccccc4)ncnc32)CC1O (stereo not drawn) for HCT-116 colon.
# output 70.5

# input Identify the measured TGI of Cc1nc2sccn2c(=O)c1CCN1CCC(=C(c2ccc(F)cc2)c2ccc(F)cc2)CC1 for HCT-116 colon.
# output 20.3

# input Identify the measured TGI of O=P(Oc1ccccc1)(Oc1ccccc1)Oc1c[nH]c2ccccc12 for HCT-116 colon.
# output 38.8

# input Identify the measured TGI of N#Cc1c(-c2ccc(Cl)cc2)n(O)c2ccccc12 for HCT-116 colon.
# output 8.69

# input Identify the measured TGI of CC1OC(OC2C(O[C@H]3CC[C@@]4(C)[C@@H](CC[C@@H]5[C@@H]4CC[C@]4(C)[C@@H]6[C@H](C[C@@H]54)O[C@]4(CC[C@@H](C)CO4)[C@H]6C)C3)OC(CO)C(OC3OC(CO)C(O)C(OC4OCC(O)C(O)C4O)C3OC3OCC(O)C(O)C3O)C2O)C(O)C(O)C1O (stereo partly drawn) for HCT-116 colon.
# output 1.02

# input Identify the measured TGI of C=C1C[C@](OC)([C@H](O)C(=O)N[C@@H](OC)[C@@H]2C[C@@H](O)C(C)(C)[C@@H](C[C@@H](COC)OC)O2)O[C@H](C)[C@@H]1C for HCT-116 colon.
# output 0.0104

# input Identify the measured TGI of N#Cc1c(-c2ccco2)cc(-c2ccc(NCc3nc4ccccc4[nH]3)cc2)nc1N for HCT-116 colon.
# output 45.9

# input Identify the measured TGI of C=C(C)[C@@H]1CC[C@]2(C)[C@H](C(=O)C=C3[C@@H]4C[C@](C)(C(=O)N5CCN(C)CC5)CC[C@]4(C)CC[C@]32C)[C@@]1(C)CCC#N for HCT-116 colon.
# output 9.33

# input Identify the measured TGI of CCN(CC)CCCNc1cccc2c(SCc3ccccc3)ccnc12 for HCT-116 colon.
# output 2.95

====

Tested on: MDA-MB-435
Test method notes: NCI tumour cell line growth inhibition, 48 h
Answer each item with its documented TGI.
Write the answer as a number in µM, unit excluded.

# input Reported TGI, compound CC(C)NC(=O)CN1CCN(C2=CC(=O)c3c(O)ccc(O)c3C2=O)CC1 : ____
# output 3.76

# input Reported TGI, compound CCCc1cc(=O)oc2c3c(c4c(c12)OC(C)(C)C=C4)O[C@@H](C)[C@H](C)C3=O : ____
# output 58.8

# input Reported TGI, compound Clc1ccc(Oc2ccc(N=Cc3ccc(Cl)cc3Cl)cc2Cl)cc1 : ____
# output 49.7

# input Reported TGI, compound C=C1C[C@](OC)([C@H](O)C(=O)N[C@@H](OC)[C@@H]2C[C@@H](O)C(C)(C)[C@@H](C[C@@H](COC)OC)O2)O[C@H](C)[C@@H]1C : ____
# output 0.00507

# input Reported TGI, compound CC(=O)N1CC(Nc2ccc(OC(F)(F)F)cc2)=CC1=O : ____
# output 0.439

# input Reported TGI, compound CCCCCCCC/C=C/CCCCCCCC1=NCC[N+]1(CCO)CCO : ____
# output 7.95

# input Reported TGI, compound COc1cc(-c2oc3c(OC)c(O)c(OC)c(O)c3c(=O)c2OC)cc(O)c1OC : ____
# output 77.6

# input Reported TGI, compound CN(C)CCNc1ccc2c(=O)n(CCN(C)C)c(=O)n3c4ccc([N+](=O)[O-])cc4c(=O)c1c23 : ____
# output 1.83

# input Reported TGI, compound N#Cc1c(-c2ccc(Cl)cc2)n(O)c2ccccc12 : ____
# output 1.26

# input Reported TGI, compound O=c1oc2ccccc2c(O)c1C(c1ccco1)c1c(O)c2ccccc2oc1=O : ____
# output 85.4

# input Reported TGI, compound O=C1C(Br)=CC2(C=C1Br)CCN=c1c2c(O)c2nc3ccccc3c3ccnc1c23 : ____
# output 3.09

# input Reported TGI, compound COc1ccc(/C(Cl)=C(\C=O)c2ccc([N+](=O)[O-])cc2)cc1OC : ____
# output 13.5

# input Reported TGI, compound C[C@H](Nc1c(O)c2c(c(O)c1Cl)C(=O)C=CC2=O)C(=O)Nc1ccc([N+](=O)[O-])cc1 : ____
# output 3.04

# input Reported TGI, compound O=C1C(CN2CCCCC2)CCCC1CN1CCCCC1 (configuration not stated) : ____
# output 30.9

# input Reported TGI, compound CC(C)(C)c1nc2c(o1)C(=O)c1ccccc1C2=O : ____
# output 0.327

# input Reported TGI, compound CCCCCCCCCCCCCCCCCC1=NCCN1CS(=O)(=O)O : ____
# output 9.82

# input Reported TGI, compound CCn1c2c(n(CC)c1=S)-c1c(n(CC)c(=S)n1CC)SSSS2 : ____
# output 27.5

# input Reported TGI, compound NCCCNc1nc2ccccc2c2c(=O)c3cc(C(F)(F)F)ccc3sc12 : ____
# output 3.06

# input Reported TGI, compound ClC1=C(Cl)C(Cl)=C(Cl)C1=C/C=C/c1ccccc1 : ____
# output 0.977

# input Reported TGI, compound O=C(OCc1ccccc1)N1CCN(/[N+]([O-])=N/Oc2ccc([N+](=O)[O-])cc2[N+](=O)[O-])CC1 : ____
# output 19.5

# input Reported TGI, compound COc1ccc(C(=O)c2ccc(OC)c(OC)c2OC)cc1 : ____
# output 0.525

# input Reported TGI, compound COc1cc(C2c3cc4c(cc3OC(Nc3ccc(C(=O)O)cc3)C2C)OCO4)cc(OC)c1OC (configuration not stated) : ____
# output 0.265

Sourced from PubChem BioAssay (NCI)
